Each recorded value in this set is attributed to patent US20190328857A1.

- Tested on: PBMC from healthy donors
- run_description: IFN-γ ELISPOT on PBMC from healthy donors
- Assay type: cell-based, human
- test_parameters: of 21 (CALRLong1), 23 (CALRLong2), 9 (CALRLong4), 7 (CALRLong5) analyzed
observable: healthy donors with a significant response in IFN-γ ELISPOT, percentage

>  <residues>
RRMMRTKMRMRRMRRTRRKMRRKMSPARP (listed as Homo sapiens) [CALRLong1]

>  <system_name>
PBMC from healthy donors

>  <value_reported>
81%

$$$$
>  <residues>
TRRKMRRKMSPARPRTSCREACLQGWTEA (listed as Homo sapiens) [CALRLong2]

>  <system_name>
PBMC from healthy donors

>  <value_reported>
78%

$$$$
>  <residues>
RRMRRTRRKMRRKMSPARPRTSCREACLQGWTEA (listed as Homo sapiens) [CALRLong4]

>  <system_name>
PBMC from healthy donors

>  <value_reported>
100%

$$$$
>  <residues>
RRMMRTKMRMRRMRRTRRKMRRKMSPARPRTSCREACLQGWTEA (listed as Homo sapiens) [CALRLong5]

>  <system_name>
PBMC from healthy donors

>  <value_reported>
100%

$$$$
